# test_system: UniProt Q9NYK1
# protocol_details: HEK/293 TLR7 Cell Assay
# measurement_conditions: TLR7/NFKb HEK cells, R848 agonist 10 uM final concentration, Steady-Glo readout; read-out: TLR7 potency
Where a name gives a salt, the structure may show the parent alone.

molecule: C[C@H]1C[C@@H](NC(=O)[C@H](C)N2CCN(C)CC2)CN(c2ccc(C#N)c3nccnc23)C1 (single isomer, unassigned)
IC50: < 75 nM
--
molecule: C[C@H]1C[C@@H](NC(=O)CCC2CCN(C)CC2)CN(c2cnc(C#N)c3nccnc23)C1
IC50: 75 to 150 nM
--
molecule: CC(C(=O)N[C@@H]1C[C@H](C)CN(c2ccc(C#N)c3nccnc23)C1)N1CCN(C)CC1 (single isomer, unassigned)
IC50: < 75 nM
--
molecule: CC(=O)NCCNC(=O)[C@H]1CN(c2ccc(C#N)c3nccnc23)C[C@@H](C)O1
IC50: 75 to 150 nM
--
molecule: C[C@H]1C[C@@H](NC(=O)[C@@H](O)C(C)(C)O)CN(c2ccc(C#N)c3nccnc23)C1
IC50: < 75 nM
--
molecule: C[C@H]1C[C@@H](NCCC(=O)NC2CS(=O)(=O)C2)CN(c2ccc(C(F)(F)F)c3ncccc23)C1
IC50: < 75 nM
--
molecule: N#Cc1ccc(N2C[C@@H](C(=O)NCC3(F)CCNCC3)O[C@@H](C(F)(F)F)C2)c2nccnc12 (single isomer, unassigned)
IC50: < 75 nM
--
molecule: CCN(C)CCNC(=O)[C@H]1CN(c2ccc(C#N)c3nccnc23)C[C@@H](C)O1
IC50: < 75 nM
--
molecule: C[C@@H]1CN(c2ccc(C#N)c3nccnc23)C[C@H](C(=O)N[C@H]2CCN(CC3CC3)C2)O1 (single isomer, unassigned)
IC50: < 75 nM
--
molecule: N#Cc1ccc(N2C[C@H](NC(=O)C3(F)CCNC3)C[C@H](C(F)(F)F)C2)c2cccnc12 (some centres unmarked) [Example 206]
IC50: 75 to 150 nM
--
molecule: Cc1noc([C@H]2CN(c3ccc(C#N)c4nccnc34)C[C@@H](C)O2)n1 (racemic)
IC50: > 150 nM
--
molecule: C[C@H]1C[C@@H](NCC2(O)CCOCC2)CN(c2cnc(C(F)(F)F)c3ncccc23)C1
IC50: > 150 nM
--
molecule: CC(=O)N1CCC(NC[C@H]2CN(c3cnc(C#N)c4ncccc34)C[C@@H](C)O2)CC1
IC50: > 150 nM
--
molecule: C[C@@H]1CN(c2ccc(C#N)c3nccnc23)C[C@H](CSC2CN(CC(C)(C)O)C2)O1
IC50: < 75 nM
--
molecule: N#Cc1ccc(N2C[C@H](NC(=O)C(O)CO)C[C@H](C(F)(F)F)C2)c2cccnc12 (some centres unmarked)
IC50: < 75 nM
--
molecule: C[C@H]1C[C@@H](NCCCS(C)(=O)=O)CN(c2ccc(C#N)c3nccnc23)C1
IC50: < 75 nM
--
molecule: C[C@@H]1CN(c2ccc(C#N)c3nccnc23)C[C@H](C(=O)NC[C@@H]2COCCN2)O1 (single isomer, unassigned)
IC50: < 75 nM
--
molecule: C[C@H]1C[C@@H](NC(=O)CN2CCN(C)CC2)CN(c2ccc(C#N)c3ncncc23)C1
IC50: < 75 nM
--
molecule: C[C@@H]1CN(c2ccc(C(F)(F)F)c3ncccc23)C[C@H](CN2CCC(N3CCOCC3)CC2)O1
IC50: 75 to 150 nM
--
molecule: C[C@@H]1CN(c2ccc(C#N)c3nccnc23)C[C@H](C(=O)N[C@H]2CNC[C@H]2F)O1 [Example 294, hydrochloride]
IC50: < 75 nM

====

# test_system: TLR7 (Homo sapiens, UniProt Q9NYK1)
# Sequence (Q9NYK1 27-1049): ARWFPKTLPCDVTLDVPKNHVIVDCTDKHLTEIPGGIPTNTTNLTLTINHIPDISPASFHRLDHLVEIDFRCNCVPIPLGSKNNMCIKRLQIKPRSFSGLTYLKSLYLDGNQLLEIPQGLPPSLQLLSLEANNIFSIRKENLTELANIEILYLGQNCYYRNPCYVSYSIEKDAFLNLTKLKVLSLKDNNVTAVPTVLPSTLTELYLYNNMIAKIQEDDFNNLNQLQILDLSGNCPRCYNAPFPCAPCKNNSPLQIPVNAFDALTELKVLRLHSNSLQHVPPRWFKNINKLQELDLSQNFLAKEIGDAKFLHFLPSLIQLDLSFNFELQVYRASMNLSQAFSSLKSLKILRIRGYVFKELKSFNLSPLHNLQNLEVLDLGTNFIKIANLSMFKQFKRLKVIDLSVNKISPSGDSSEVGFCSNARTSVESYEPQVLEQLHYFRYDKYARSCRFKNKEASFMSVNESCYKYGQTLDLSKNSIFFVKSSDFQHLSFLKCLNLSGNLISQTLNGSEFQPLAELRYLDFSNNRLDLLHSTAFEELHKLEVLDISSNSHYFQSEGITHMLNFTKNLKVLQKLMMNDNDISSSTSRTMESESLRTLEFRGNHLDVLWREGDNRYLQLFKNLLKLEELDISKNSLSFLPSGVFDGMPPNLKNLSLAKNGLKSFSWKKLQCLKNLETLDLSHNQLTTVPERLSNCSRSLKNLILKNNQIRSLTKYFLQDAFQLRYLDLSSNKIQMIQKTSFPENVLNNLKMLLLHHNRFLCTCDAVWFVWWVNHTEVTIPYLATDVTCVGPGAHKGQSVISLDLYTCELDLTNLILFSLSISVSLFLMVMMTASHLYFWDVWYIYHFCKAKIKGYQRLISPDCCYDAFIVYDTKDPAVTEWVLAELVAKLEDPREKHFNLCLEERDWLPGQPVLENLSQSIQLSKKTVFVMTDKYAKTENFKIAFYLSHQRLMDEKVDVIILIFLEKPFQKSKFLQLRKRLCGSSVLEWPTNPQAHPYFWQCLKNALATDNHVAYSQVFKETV
# protocol_details: HEK/293 TLR7 Cell Assay
# measurement_conditions: TLR7/NFKb HEK cells, R848 agonist 10 uM final concentration, Steady-Glo readout; read-out: TLR7 potency
pIC50: −log10 of the molar value. Structures can show the parent of a compound that is named as a salt.
Recorded pIC50, one value per entry.

molecule: C[C@H]1C[C@@H](NC(=O)CC2(O)CCN(C)CC2)CN(c2ccc(C(F)(F)F)c3ncccc23)C1
test_system: TLR7 (Homo sapiens, UniProt Q9NYK1)
pIC50: > 7.12

molecule: N#Cc1ccc(N2C[C@H](NC(=O)C3CCCNC3)C[C@H](C(F)(F)F)C2)c2cccnc12 (some centres unmarked)
test_system: TLR7 (Homo sapiens, UniProt Q9NYK1)
pIC50: < 6.82

molecule: C[C@H]1C[C@@H](N)CN(c2cnc(C#N)c3ncccc23)C1 [Example 8, hydrochloride]
test_system: TLR7 (Homo sapiens, UniProt Q9NYK1)
pIC50: > 7.12

molecule: CCS(=O)(=O)NCCN[C@@H]1C[C@H](C)CN(c2ccc(C#N)c3nccnc23)C1
test_system: TLR7 (Homo sapiens, UniProt Q9NYK1)
pIC50: 6.82 to 7.12

molecule: Cc1c(F)cc(N2C[C@H](CN3CCC(N4CCCC4)CC3)O[C@H](C)C2)c2cccnc12
test_system: TLR7 (Homo sapiens, UniProt Q9NYK1)
pIC50: > 7.12

molecule: N#Cc1ccc(N2C[C@@H](C(=O)N[C@H]3CNC[C@H]3F)O[C@@H](C(F)(F)F)C2)c2nccnc12 (single isomer, unassigned)
test_system: TLR7 (Homo sapiens, UniProt Q9NYK1)
pIC50: > 7.12

molecule: C[C@H]1C[C@@H](NC(=O)[C@H]2COCCN2)CN(c2ccc(C#N)c3nccnc23)C1
test_system: TLR7 (Homo sapiens, UniProt Q9NYK1)
pIC50: 6.82 to 7.12

molecule: C[C@@H]1CN(c2ccc(C#N)c3nccnc23)C[C@H](C(=O)NCCN2CCOCC2)O1
test_system: TLR7 (Homo sapiens, UniProt Q9NYK1)
pIC50: > 7.12

molecule: C[C@H]1C[C@@H](NC(=O)CCN(C)C)CN(c2ccc(C(F)(F)F)c3nccnc23)C1
test_system: TLR7 (Homo sapiens, UniProt Q9NYK1)
pIC50: > 7.12

molecule: CC(=O)NCCN[C@@H]1C[C@H](C)CN(c2ccc(C(F)(F)F)c3ncccc23)C1
test_system: TLR7 (Homo sapiens, UniProt Q9NYK1)
pIC50: > 7.12

molecule: Cc1ccc(N2C[C@H](NC(=O)CC3CCN(C(C)C)CC3)CC(F)(F)C2)c2cccnc12
test_system: TLR7 (Homo sapiens, UniProt Q9NYK1)
pIC50: > 7.12

molecule: N#Cc1ccc(N2C[C@@H](C(F)(F)F)O[C@@H](C(=O)NC[C@]3(F)CCNC3)C2)c2cccnc12 (single isomer, unassigned)
test_system: TLR7 (Homo sapiens, UniProt Q9NYK1)
pIC50: < 6.82

molecule: CN(C)CCNC(=O)N[C@@H]1C[C@H](C(F)(F)F)CN(c2ccc(C(F)(F)F)c3nccnc23)C1
test_system: TLR7 (Homo sapiens, UniProt Q9NYK1)
pIC50: 6.82 to 7.12

molecule: C[C@@H]1CN(c2cnc(C#N)c3ncccc23)C[C@H](CNCC2(O)COC2)O1
test_system: TLR7 (Homo sapiens, UniProt Q9NYK1)
pIC50: < 6.82

molecule: N#Cc1ncc(N2C[C@@H](C(F)(F)F)O[C@@H](C(=O)NC[C@]3(F)CCNC3)C2)c2cccnc12 (single isomer, unassigned)
test_system: TLR7 (Homo sapiens, UniProt Q9NYK1)
pIC50: < 6.82

molecule: C[C@H]1C[C@@H](NC(=O)NC2CCN(C)CC2)CN(c2ccc(C(F)(F)F)c3ncccc23)C1
test_system: TLR7 (Homo sapiens, UniProt Q9NYK1)
pIC50: < 6.82

molecule: C[C@@H]1CN(c2ccc(C#N)c3ncncc23)C[C@H](C(=O)NCC2(F)CCN(C)CC2)O1
test_system: TLR7 (Homo sapiens, UniProt Q9NYK1)
pIC50: > 7.12

molecule: C[C@H]1C[C@@H](NC(=O)NCCN(C)C)CN(c2ccc(C#N)c3nccnc23)C1
test_system: TLR7 (Homo sapiens, UniProt Q9NYK1)
pIC50: > 7.12

molecule: N#Cc1ccc(N2C[C@H](NC(=O)CC3(N)CC3)C[C@H](C(F)(F)F)C2)c2nccnc12
test_system: TLR7 (Homo sapiens, UniProt Q9NYK1)
pIC50: 6.82 to 7.12

molecule: C[C@H]1C[C@@H](NC(=O)C2CCN(C(=O)[C@@H](N)[C@@H](C)O)CC2)CN(c2ccc(C(F)(F)F)c3ncccc23)C1
test_system: TLR7 (Homo sapiens, UniProt Q9NYK1)
pIC50: > 7.12

molecule: Cc1c(F)cc(N2C[C@@H](C)C[C@@H](NC(=O)[C@H](N)CO)C2)c2cccnc12
test_system: TLR7 (Homo sapiens, UniProt Q9NYK1)
pIC50: > 7.12

molecule: C[C@@H]1CN(c2cnc(C#N)c3ncccc23)C[C@H](C(=O)NCC2CN(C)CCO2)O1 (some centres unmarked)
test_system: TLR7 (Homo sapiens, UniProt Q9NYK1)
pIC50: > 7.12

molecule: C[C@@H]1CN(c2ccc(C#N)c3nccnc23)C[C@H](C(=O)NC[C@H](O)CN(C)C)O1 (single isomer, unassigned)
test_system: TLR7 (Homo sapiens, UniProt Q9NYK1)
pIC50: > 7.12
